Experiment: Brain pharmacokinetics after intraperitoneal administration
Format: in vivo, mouse
Settings: mouse; healthy mice, IP 3.6 mg/kg in water; brain vs plasma; read-out: B/P index
Protocol: B. MM54 compound was solubilized in water and administered intraperitoneally (IP) at the dose of 3.6 mg/kg to healthy mice. Mice (3/group) were sacrificed at 10 min, 30 min, 60 min, 2h, 4h, 6h, 8h and 24h post-injection. Plasma and brains were collected and further processed for LC-MS/MS analysis. B/P index is 0.24. AUC is area under the curve. n.d. stands for ‘not able to be
Positions of bridges follow the written chain, without caps; N, C: chain ends. Residues, ends and D or L forms follow the SMILES beside them.
Measurement type: Kp

CC(C)C[C@@H]1NC(=O)[C@H](CCCNC(=N)N)NC(=O)[C@@H]2CCCN2C(=O)[C@H](CCCNC(=N)N)NC(=O)[C@@H](NC(=O)[C@H](Cc2c[nH]cn2)NC(=O)[C@H](CCCCN)NC(=O)[C@@H]2CSSC[C@H](N)C(=O)N[C@@H](CCCNC(=N)N)C(=O)N3CCC[C@H]3C(=O)N[C@@H](CCCNC(=N)N)C(=O)N[C@@H](CC(C)C)C(=O)N2)CSSC[C@@H](C(=O)O)NC1=O [MM54, cyclo(1–6)CRPRLC-KH-cyclo(9–14)CRPRLC] (H-CRPRLCKHCRPRLC-OH; disulfide 1-6, 9-14) ... 0.24

----------
Assay: Plasma pharmacokinetics after intraperitoneal administration
Format: in vivo, mouse
Settings: mouse, plasma; healthy mice, IP 3.6 mg/kg in water, 3/group, LC-MS/MS
Method: B. MM54 compound was solubilized in water and administered intraperitoneally (IP) at the dose of 3.6 mg/kg to healthy mice. Mice (3/group) were sacrificed at 10 min, 30 min, 60 min, 2h, 4h, 6h, 8h and 24h post-injection. Plasma and brains were collected and further processed for LC-MS/MS analysis. B/P index is 0.24. AUC is area under the curve. n.d. stands for ‘not able to be
Positions of bridges follow the written chain, without caps; N, C: chain ends. Residues, ends and D or L forms follow the SMILES beside them.
Measurement type: AUC

CC(C)C[C@@H]1NC(=O)[C@H](CCCNC(=N)N)NC(=O)[C@@H]2CCCN2C(=O)[C@H](CCCNC(=N)N)NC(=O)[C@@H](NC(=O)[C@H](Cc2c[nH]cn2)NC(=O)[C@H](CCCCN)NC(=O)[C@@H]2CSSC[C@H](N)C(=O)N[C@@H](CCCNC(=N)N)C(=O)N3CCC[C@H]3C(=O)N[C@@H](CCCNC(=N)N)C(=O)N[C@@H](CC(C)C)C(=O)N2)CSSC[C@@H](C(=O)O)NC1=O [MM54, cyclo(1–6)CRPRLC-KH-cyclo(9–14)CRPRLC] (H-CRPRLCKHCRPRLC-OH; disulfide 1-6, 9-14) ... 1470 ng·h/mL

----------
assay: Solubility in vehicles; assay type: physicochemical; conditions: saline (NaCl 0.9%); 1 mg resuspended, 24h, RT, gentle rotation; HPLC
Positions of bridges follow the written chain, without caps; N, C: chain ends. Residues, ends and D or L forms follow the SMILES beside them.
Measurement type: solubility at 24 h

CC(C)C[C@@H]1NC(=O)[C@H](CCCNC(=N)N)NC(=O)[C@@H]2CCCN2C(=O)[C@H](CCCNC(=N)N)NC(=O)[C@@H](NC(=O)[C@H](Cc2c[nH]cn2)NC(=O)[C@H](CCCCN)NC(=O)[C@@H]2CSSC[C@H](N)C(=O)N[C@@H](CCCNC(=N)N)C(=O)N3CCC[C@H]3C(=O)N[C@@H](CCCNC(=N)N)C(=O)N[C@@H](CC(C)C)C(=O)N2)CSSC[C@@H](C(=O)O)NC1=O [MM54, cyclo(1–6)CRPRLC-KH-cyclo(9–14)CRPRLC] (H-CRPRLCKHCRPRLC-OH; disulfide 1-6, 9-14) ... > 0.73 mM
